# credit: patent US20260125375A1

Quick reference: Ki of the listed items.
# assayed_system: CBL-B (residues 36-427) (Homo sapiens)
# Construct: Purified CBL-B (residues 36-427) and C-CBL (residues 46-435) proteins from baculovirus-infected insect cells; made in house; host or cells: baculovirus-infected insect cells
# assay_remarks: Ligand Displacement Assay (LDA), HTRF competitive binding against BODIPY-labeled fluorescent tracer, CBL-B
# test_context: geometric mean of the number of tests, read-out: CBL-B Ki (nM) GMean
Express the result in nM but write the number alone.

Cn1cnnc1[C@@H](c1cccc(-c2n[nH]c3c(CN4C[C@@H](F)[C@H](F)C4)nc(C(F)(F)F)cc23)c1)C1CCC1 [Example C111]	26.9
Cn1cnnc1[C@@H](c1cccc(-c2n[nH]c3c(CN4C[C@@H](O)[C@H](O)C4)nc(C(F)(F)F)cc23)c1)C1CCC1 [Example C74]	7.5

Quick check: Ki of C[C@H](N[C@@H]1CCOC1)c1nc(C(F)(F)F)cc2c(-c3cccc([C@H](c4nncn4C)C4CCC4)c3)n[nH]c12 (single isomer, unassigned) [Example D2] ?
5.8
